This listing pairs molecules with measured IRF reporter.
- System: RAW-Dual (murine macrophage reporter line)
- Assay procedure: IRF reporter (Lucia luciferase) activity fold change vs agonist alone; higher = enhanced IRF activity
- Test parameters: modulator concentration 10 µM; agonist: 3'3'-cGAMP 10 ug/mL
Enter a number only.

INSERT INTO results (molecule, measure_name, number) VALUES
  ('Br.O=S(=O)(c1ccc(-c2csc(Nc3ccc(Cl)cc3)n2)cc1)N1CCOCC1', 'IRF reporter', 0.907);

Please find the next molecule below.
[Q] Give IRF reporter; test system RAW-Dual (murine macrophage reporter line); molecule Br.O=S(=O)(c1ccc(-c2csc(Nc3cccc4ccccc34)n2)cc1)N1CCOCC1
[A] 0.769

---

- Test system: RAW-Dual (murine macrophage reporter line)
- Assay procedure: IRF reporter (Lucia luciferase) activity fold change vs agonist alone; higher = enhanced IRF activity
- Test parameters: modulator concentration 10 µM; agonist: MPLA […]
Measure name: IRF reporter

Solved cases (8 shown):
INSERT INTO assay_data (molecule, tested_system, measure_name, result) VALUES
  ('Cc1ccc(Sc2cc(Sc3ccc(C)cc3)c3noc4c3c2C(=O)c2ccccc2-4)cc1', 'RAW-Dual (murine macrophage reporter line)', 'IRF reporter', 1.49),
  ('COC(=O)C1C(=O)CC(C)(O)C(C(=O)OC)C1c1ccc2c(c1)OCO2 (stereo unspecified)', 'RAW-Dual (murine macrophage reporter line)', 'IRF reporter', 1.14),
  ('CCCCOc1ccc(CC(=O)NO)cc1', 'RAW-Dual (murine macrophage reporter line)', 'IRF reporter', 0.815),
  ('O=C(NCCC(CCO)c1ccccc1)Nc1c(F)cccc1F (stereo unspecified)', 'RAW-Dual (murine macrophage reporter line)', 'IRF reporter', 0.978),
  ('CC(=O)NC(c1ccccc1)c1c(OC(=O)COc2ccccc2)ccc2ccccc12 (stereo unspecified)', 'RAW-Dual (murine macrophage reporter line)', 'IRF reporter', 0.948),
  ('CCCCNC(=O)Cc1ccc(Br)cc1', 'RAW-Dual (murine macrophage reporter line)', 'IRF reporter', 1.4),
  ('CC(c1ccccc1)c1nnc(NC(=O)c2ccco2)s1 (stereo unspecified)', 'RAW-Dual (murine macrophage reporter line)', 'IRF reporter', 1.3),
  ('O=C(C=Cc1ccc(Br)cc1)c1c(-c2ccccc2)c2cc(Cl)ccc2[nH]c1=O', 'RAW-Dual (murine macrophage reporter line)', 'IRF reporter', 1.5);

[Q] Fill in IRF reporter for record O=C(NCC1CCN(C(=O)c2ccncc2)CC1)c1ccc(Oc2ccccc2)cc1
[A] 0.932

[Q] Tell me IRF reporter reported for C=C1CCC2C(C)(CO)C(O)CCC2(C)C1CC=C1C(=O)OCC1O (stereo unspecified)
[A] 1.51

[Q] Name the recorded IRF reporter of the molecule listed here: O=C(Nc1ccc(-c2cn3ccsc3n2)cc1)C1CCCC1
[A] 1.38

---

- System: RAW-Dual (murine macrophage reporter line)
- Assay procedure: IRF reporter (Lucia luciferase) activity fold change vs agonist alone; higher = enhanced IRF activity
- Test parameters: modulator concentration 10 µM; agonist: MPLA […]
Measure name: IRF reporter
Answer field: number only, no words.

Some entries whose results are on file:
INSERT INTO measurements (compound, tested_system, measure_name, number) VALUES
  ('CCOc1cc(C=C2SC(=S)N(CCS(=O)(=O)O)C2=O)ccc1O', 'RAW-Dual (murine macrophage reporter line)', 'IRF reporter', 0.997),
  ('CCOC(=O)C1=C(C)NC(C)=C(C(=O)OCC)C1c1ccccc1/C=C/C(=O)OC(C)(C)C', 'RAW-Dual (murine macrophage reporter line)', 'IRF reporter', 1.15),
  ('O=S1(=O)N=C(Oc2ccc3ccccc3c2)c2ccccc21', 'RAW-Dual (murine macrophage reporter line)', 'IRF reporter', 0.991),
  ('COc1ccc(C=Nn2cc(-c3ccc(Cl)cc3)nc2N=Cc2cc(Br)cc(Br)c2O)cc1', 'RAW-Dual (murine macrophage reporter line)', 'IRF reporter', 1.07),
  ('Cc1c(-c2ccccc2)nc2ccccc2c1C(=O)N1CCCC1', 'RAW-Dual (murine macrophage reporter line)', 'IRF reporter', 1.24);

[Q] Please look at this compound and report its IRF reporter: Cc1ncsc1C(=O)N1CC(OCC(F)(F)F)C1
[A] 0.999

[Q] Could you please provide reported IRF reporter for COc1cc(/C=C/C(=O)/C=C(O)/C=C/c2ccc(O)c(OC)c2)ccc1O ? Thanks!
[A] 0.517

[Q] Provide IRF reporter value for the following compound: CC#CCn1c(N2CCC[C@@H](N)C2)nc2c1c(=O)n(Cc1nc(C)c3ccccc3n1)c(=O)n2C
[A] 1.14
